# experimental_target: human calcitonin receptor (CTR) (Homo sapiens, UniProt P30988)
# Sequence (P30988 25-474): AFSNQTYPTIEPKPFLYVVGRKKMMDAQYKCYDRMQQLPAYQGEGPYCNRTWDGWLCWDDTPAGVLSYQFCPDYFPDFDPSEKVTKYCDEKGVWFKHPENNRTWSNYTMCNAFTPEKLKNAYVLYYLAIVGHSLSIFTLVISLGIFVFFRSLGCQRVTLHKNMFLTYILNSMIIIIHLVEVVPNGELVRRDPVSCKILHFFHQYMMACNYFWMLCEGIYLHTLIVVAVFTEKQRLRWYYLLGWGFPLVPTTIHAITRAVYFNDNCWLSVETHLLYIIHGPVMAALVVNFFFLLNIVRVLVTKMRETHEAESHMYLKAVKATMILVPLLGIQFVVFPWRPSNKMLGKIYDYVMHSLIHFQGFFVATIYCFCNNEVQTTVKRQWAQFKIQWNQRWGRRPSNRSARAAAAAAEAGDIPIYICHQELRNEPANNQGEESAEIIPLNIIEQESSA
# method_summary: Calcitonin Receptor (CTR) cAMP Assay
# measurement_setup: COS7-human CTR Clone #2 stable cell line, cAMP dynamic 2 kit, 30 min; read-out: Calcitonin Receptor cAMP Stimulation Activity: EC50
outcome_measure: pEC50
Just so you know, pEC50 here is -log10 of the concentration in molar units; reply with that number alone.

See these solved cases before continuing.
COc1cccc2c1CC[C@H]2Nc1nccc2cc(-c3c(-c4n[nH]c(=O)o4)c(CCc4ccc(F)cc4)nc4c3S(=O)(=O)CC4C(C)C)sc12 (stereo partly shown)
8.61
O=C1c2c(nc(CCC34CCC(CC3)OC4)c(-c3n[nH]c(=O)o3)c2-c2cnc3c(ccn3Cc3ccc(F)cn3)c2)[C@@H]2CCCN12
6.39
COc1cccc2c1CC[C@H]2Nc1nccc2cc(-c3c4c(nc(CCc5ccc(F)cc5)c3-c3n[nH]c(=O)o3)[C@@H]3CCCN3C4=O)sc12 [Compound 230]
9.29
O=C1c2c(nc(CCc3ccc(F)cc3)c(-c3n[nH]c(=O)o3)c2-c2cc3ccnc(N[C@@H]4CCc5ccc(F)cc54)c3s2)[C@@H]2CCCN12
9.66
O=C1c2c(nc(CCc3ccc(F)cc3)c(-c3n[nH]c(=O)o3)c2-c2cc3ccnc(N[C@@H]4CCc5cc(F)c(F)cc54)c3s2)C23CC(CN12)C3
11.10

Query: I am curious: what pEC50 value has been reported for COc1cccc2c1CC[C@H]2Nc1nccc2cc(-c3c4c(nc(CCc5ccc(F)cc5)c3-c3n[nH]c(=O)s3)[C@@H]3CCCN3C4=O)sc12 ?
Result: 9.08

Query: I am curious: what pEC50 value has been reported for COc1cccc2c1CC(F)(F)[C@H]2Nc1nccc2cc(-c3c4c(nc(CCc5ccc(F)cc5)c3-c3n[nH]c(=O)o3)[C@@H]3CCCN3C4=O)sc12 ?
Result: 9.64

Where these numbers come from: patent US12486269B2
